The entries below are paired with their reported melting point.

For orientation, consider the following solved cases.
compound: COc1ccc(CCNC(=O)/C=C(\C)c2ccc3oc(C(=O)c4ccc(C#N)cc4)c(NC(=O)c4cnoc4C)c3c2)cc1OC
obsValue: 162.6 to 165.5 °C

compound: C/C(O)=C(\C#N)C(=O)Nc1c(C(=O)/C=C/c2ccccc2)oc2ccc(Br)cc12
obsValue: 261.5 to 262.8 °C

compound: COc1cccc2c(NC(=O)/C(C#N)=C(/C)O)c(C(C)=O)oc12
obsValue: 207.2 to 208.9 °C

Give recorded melting point. COC(=O)COc1cccc2cc(C(C)NC(=O)c3cnoc3C)oc12 (stereo not drawn)
111.8 to 114.6 °C

----------
The entries below are paired with their reported melting point.

compound: C/C=C/C(=O)NC(C)c1cc2cccc(OCCCCl)c2o1 (centres unmarked) [Example 133]
obsValue: 104.7 to 107.7 °C
//
compound: COc1cccc2c(NC(=O)/C(C#N)=C(/C)O)c(C(=O)c3ccc(Br)cc3)oc12 [Example 99]
obsValue: 131.7 to 133.4 °C
//
compound: O=C(/C=C/c1ccccc1)Nc1c(C(=O)c2ccc(Cl)cc2)oc2ccc(Br)cc12 [Example 113]
obsValue: 171.2 to 171.8 °C
//
compound: CC(=O)c1cc2c(/C(C)=C/C(=O)N3CCN(c4ccccc4)CC3)ccc(OC(C)c3ccccc3)c2o1 (centres unmarked) [Example 5]
obsValue: 79 to 84.6 °C

Give recorded melting point. CC(=O)c1oc2ccccc2c1NC(=O)c1cnoc1C [Example 69]
174 to 177 °C

----------
The entries below are paired with their reported melting point.

For orientation, consider the following solved cases.
compound: CC(=O)c1oc2ccc(/C(C)=C/C(=O)N3CCOCC3)cc2c1NC(=O)/C(C#N)=C(/C)O [Example 108]
melting point: 206.9 to 208.6 °C

compound: COc1ccc(NC(=O)/C=C(\C)c2cc3cccc(OC(c4ccccc4)c4ccccc4)c3o2)cc1 [Example 41]
melting point: 191.8 to 193.6 °C

compound: COc1cccc2cc(/C(Cl)=C/C=C/C(=O)N(C(C)C)C(C)C)oc12 [Example 142]
melting point: 140.1 to 142 °C

Give recorded melting point. CC(=O)c1cc2c(/C(C)=C/C(=O)N3CCOCC3)ccc(OC(C)c3ccccc3)c2o1 (stereo not shown) [Example 9]
173.9 to 175.4 °C

----------
- System: LTB4 receptor
- testMethodNotes: TXB2 release from guinea pig eosinophils stimulated with LTB4 (LTB4 receptor antagonist activity)
- Type: cell-based
- testSettings: 10^−3 M test compound (37.5 μl) added to 300 μl cell suspension, then 10^−7 M LTB4 (37.5 μl), 37° C. 15 min, positive control 100, negative control 0, N.D. = TXB2 concentration at measurement limit or less
- Protocol: The LTB4 receptor antagonist activity of the test compound was examined using, as an index, thromboxane B2 (TXB2) released when stimulating eosinophil of guinea pig with LTB4. Based on the method described in Japanese Journal of Pharmacology, vol. 70, p. 337-345 (1996) etc., eosinophils of guinea pig were prepared. […] The quantitation of TXB2 was performed using a TXB2 enzyme immunoassay kit (manufactured by Cayman Chemical Company). […]
endpointName: Amount of TXB2 release (%)
Output spec: scalar in %, unitless text.

molecule: CCOC(=O)c1ccc(OC)c(NC(=O)/C=C(\C)c2ccc3oc(C(C)=O)c(N)c3c2)c1
Amount of TXB2 release (%): 56.57

molecule: CC(=O)c1cc2c(/C(C)=C/C(=O)N3CCOCC3)ccc(OC(C)c3ccccc3)c2o1 (centres unmarked)
Amount of TXB2 release (%): 0.68

molecule: CC(=O)c1oc2ccc(/C(C)=C/C(=O)N3CCN(Cc4ccccc4)CC3)cc2c1N
Amount of TXB2 release (%): 48.63

molecule: CC(NC(=O)/C=C/c1ccccc1)c1cc2cccc(OCCCCl)c2o1 (centres unmarked)
Amount of TXB2 release (%): 2.14

molecule: CC(=O)c1oc2ccc(/C(C)=C/C(=O)N3CCN(c4ccccc4)CC3)cc2c1NC(=O)c1cnoc1C
Amount of TXB2 release (%): 27.03

molecule: CCOC(=O)CCCOc1cccc2cc(/C(C)=C/C(=O)NCCc3ccc(OC)c(OC)c3)oc12
Amount of TXB2 release (%): 2.37

Print LTB4 receptor Amount of TXB2 release (%) for CCOC(=O)c1oc2ccc(Br)cc2c1NC(=O)/C(C#N)=C(/C)O .
−0.12

Print LTB4 receptor Amount of TXB2 release (%) for CCOC(=O)CCCOc1cccc2cc(/C(C)=C/C(=O)N3CCOCC3)oc12 .
0.086

Source of measurements: patent US7638540B2
